FYI, the data here is from patent US20240294651A1.

Examples of binders with documented % Max Inhibition, beta-arrestin reporter assay, Tango CXCR4-bla U2OS cells follow.
Test system: human CXCR4 (cell-expressed) (human, UniProt P61073 1-352)
Sequence (P61073 whole entry): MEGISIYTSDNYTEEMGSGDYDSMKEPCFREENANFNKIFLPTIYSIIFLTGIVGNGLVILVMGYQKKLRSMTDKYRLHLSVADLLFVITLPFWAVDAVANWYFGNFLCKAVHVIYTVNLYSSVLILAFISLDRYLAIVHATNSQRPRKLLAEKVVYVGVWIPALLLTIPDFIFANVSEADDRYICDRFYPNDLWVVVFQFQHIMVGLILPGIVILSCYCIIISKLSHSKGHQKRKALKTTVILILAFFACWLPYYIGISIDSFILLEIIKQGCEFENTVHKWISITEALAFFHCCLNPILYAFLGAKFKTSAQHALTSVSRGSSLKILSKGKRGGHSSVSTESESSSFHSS
Method notes: cell-based or functional assay
Report only the number, with the unit % understood.

Some entries whose results are on file:
CL-82558 (antibody, human IgG4 S228P, kappa, V domains shown, Tested in human IgG4-PE format; also called CL-82558 (IgG4-PE format)) VH: QVQLQESGPGLVKPSQTLSLTCTVSGGSISSGGYYWSWIRQVPGKGLEWIGYISYSGNTFYSPSLKSRVTISVDTSENKFSLRLTSVTAADTAVYFCARDRRIPMLRGVKGYYYGLDVWGQGTTVTVSS VL: DIVMTQSPLSLPVIPGEPASISCRSSQSLLHRNGYKYLDWYLQKPGQSPQLLIYLGSNRASGVPARFSGSGSGTDFTLKISRVEAEDVGVYYCMQALQTPWTFGQGTKVEIKR; 99.5
CL-82551 (antibody, human IgG4 S228P, kappa, V domains shown, Tested in human IgG4-PE format) VH: QVQLVQSGAEVKKPGASVKVSCKASGYTFTSYDINWVRQATGQGLEWMGWMNPNSGNTGYAQKFQGRVTMTRNTSISTAYMELSSLRSEDTAVYYCARGRGYYGSGSHYRGYYYYGLDVWGQGTTVTVSS VL: DIQMTQSPSTLSASVGDRVTITCRASQSISSWLAWYQQKPGKAPKVLIYKASSLKSGVPSRFSGSGSGTEFTLTVSSLQPDDFATYYCQQYNSYSWTFGQGTKVEIKR; 98.2
CL-82495 (antibody, human IgG4 S228P, kappa, V domains shown, Tested in human IgG4-PE format) VH: QVQLVESGGGVVQPGRSLRLSCEASGFTLSSYGMHWVRQAPGKGLEWVAVIWNDGSNKYSADSVKGRFTISRDNSKNTLYLQMNRLRAEDTAVYYCARGGGYYGSGSHYRGYYYYGMDVWGQGTTVTVSS VL: DIQMTQSPSSLSASVGDRVTITCRASQGIRNDLGWYQQKPGKAPKRLIYAASSLQSGVPSRFSGSGSGTEFTLTISSLQPEDFATYYCLQHNSYPWTFGQGTKVEIKR; 98.9
CL-82458 (antibody, human IgG4 S228P, kappa, V domains shown, Tested in human IgG4-PE format; also called CL-82458 (IgG4-PE format)) VH: EVQLVESGGDLVQPGGSLRLSCAASGFTFYSYAMNWVRQAPGKGLKWVSGISGSGDITYYADSVKGRFTISRDNSKNTLYLQMHSLRPEDTAIYYCAKGQLERRYYKYYGMDVWGQGTTVTVSS VL: DIQMTQSPSSLSASVGDRVTITCRANQGIRNDLGWYQQKPGKAPKRLIYGASSLKSGVPSRFSGSGSGTEFTLTISSLQPEDFATYYCLQQNSYPLTFGGGTKVEIKR; 102
CL-82562 (antibody, human IgG4 S228P, kappa, V domains shown, Tested in human IgG4-PE format) VH: QVQLVESGGGVVQPGRSLRLSCTASGFTFSNYAMHWVRQAPGKGLEWVAVISYDGSNKYCADSVKGRFTISRDNSKNTLYLQMNSLRAEDTAVYYCARGPLARRHYYYYGMDVWGQGTTVTVSS VL: DIQMTQSPSSLSASVGDRVTITCRASQGIRNDLGWYQQKPGKAPKRLIYGASSLQSGVPSRFSGSGSGTEFTLTISSLQPEDFATYYCLQHNSYPRTFGQGTKVEIKR; 101

In: Using the record for CL-82517 (antibody, human IgG4 S228P, kappa, V domains shown, Tested in human IgG4-PE format) VH: EVQLVESGGGLVKPGGSLRLSCAASGFTFSSYSMNWVRQAPGKGLEWVSSISSSRRYIYYADSVKGRFTISRDNAKNSLYLQMNSLRAEDTAVYYCARAYGQVAPYYYYGMDVWGQGTTVTVSS VL: AIQLTQSPSSLSASVGDRVTITCRASQGISSALAWYQQKPGKAPKLLIYDASSLESGVPSRFSGSGSGTDFTLTISSLQPEDFATYYCQQFNSYPLTFGGGTKVEIKR , report its % Max Inhibition, beta-arrestin reporter assay, Tango CXCR4-bla U2OS cells.
Out: 89.6

In: Using the record for CL-82455 (antibody, human IgG4 S228P, kappa, V domains shown) VH: QVQLVESGGGVVQPGRSLRLSCAASGFTFNNYGMHWVRQAPGKGLEWVAVIWNDGSNKYYGDSVKGRFTISRDNSKNTLYLQMNSLRAEDTAVYYCARGGGYYGSGKHYRGYYYNGMGVWGQGTPVTVSS VL: EIVMTQSPATLSVSPGERATLSCRASQSVSSNLAWYQQKPGQAPRLLIYGASTRATGIPARFSGSGSGTEVTLTISSLQSEDFTIYYCQQYNNWPWTFGQGTKVDIKR , report its % Max Inhibition, beta-arrestin reporter assay, Tango CXCR4-bla U2OS cells.
Out: 86.8

In: Using the record for CL-82571 (antibody, human IgG4 S228P, kappa, V domains shown, Tested in human IgG4-PE format) VH: EVQLVESGGGLVQPGGSLKLSCAASGFTFSGSAMHWVRQASGKGLEWVGRIRSKANKYATAYAASVKGRFTISRDDSKNTAYVQMKSLKTEDTAVYYCTWELSNYDILTGFYYGMDVWGQGTTVTVSS VL: DIQMTQSPSTLSASVGDRVTITCRASQSISNWLAWYQQKPGKAPKVLIYKASSLESGVPSRFSGSGSGTEFTLTISSLQPDDFATYYCQQYNSFSWTFGQGTKVEIKR , report its % Max Inhibition, beta-arrestin reporter assay, Tango CXCR4-bla U2OS cells.
Out: 85.6

In: Using the record for CL-82523 (antibody, human IgG4 S228P, kappa, V domains shown, Tested in human IgG4-PE format) VH: EVQLVESGGGLVQPGGSLRLSCAASGFTFSNYAMSWVRQAPRKGLEWVSVISGSGGRTNYAGSVKGRFSITRDNSKNTLYLQMNSLRAEDTAVYYCVKGQLERRYYYYYGMDVWGQGITVTVSS VL: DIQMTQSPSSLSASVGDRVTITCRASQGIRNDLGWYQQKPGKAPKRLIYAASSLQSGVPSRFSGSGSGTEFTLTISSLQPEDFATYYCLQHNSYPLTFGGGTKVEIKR , report its % Max Inhibition, beta-arrestin reporter assay, Tango CXCR4-bla U2OS cells.
Out: 101

In: Using the record for CL-82658 (antibody, human IgG4 S228P, kappa, V domains shown, Tested in human IgG4-PE format; also called CL-82658 (IgG4-PE format)) VH: QVQLVESGGGVVQPGRSLRLSCAASGFSFSSYGMHWVRQAPGKGLEWVAVISYDGSNKYYADSVKGRFTISRDNSKNTLYLQMNSLRGEDTAVYYCSKGSLTPRRGYYYSYGMDVWGQGTTVTVSS VL: DIQMTQSPSSLSASVGDRVTITCRASQGIRNDLSWYQQKPGKAPKRLIYAASSLQSGVPSRFSGSGSGTEFTLTISSLQPEDFATYYCLQHNGYPFTFGPGTKVDIKR , report its % Max Inhibition, beta-arrestin reporter assay, Tango CXCR4-bla U2OS cells.
Out: 100
